IC50: recorded values
Target: Orexin/Hypocretin receptor type 1 (Homo sapiens, UniProt O43613)
Sequence (O43613 whole entry): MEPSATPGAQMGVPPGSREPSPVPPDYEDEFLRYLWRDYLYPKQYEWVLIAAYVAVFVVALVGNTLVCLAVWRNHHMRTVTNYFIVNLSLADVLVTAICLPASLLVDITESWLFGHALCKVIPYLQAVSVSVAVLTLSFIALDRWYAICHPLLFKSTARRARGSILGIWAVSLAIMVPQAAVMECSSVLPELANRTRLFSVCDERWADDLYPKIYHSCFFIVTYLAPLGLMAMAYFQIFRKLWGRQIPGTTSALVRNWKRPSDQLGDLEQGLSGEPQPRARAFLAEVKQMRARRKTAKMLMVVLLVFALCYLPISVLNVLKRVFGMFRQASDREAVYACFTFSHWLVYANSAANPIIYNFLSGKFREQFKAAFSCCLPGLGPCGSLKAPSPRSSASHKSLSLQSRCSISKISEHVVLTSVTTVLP
Experiment: Orexin Receptor Cell-Based Functional Assay: Measurement of [Ca2+]i using a FLIPR: CHO—OX1 or CHO—OX2 cells were seeded into black-walled clear-base 384-well plates (Corning, catalog #3712) at a density of 20,000 cells per well in F12-K medium supplemented with 10% FBS and then incubated in a 5% CO2, 37° C. incubator overnight to reach 90% confluency. The cells were incubated with equal volume of calcium 6 loading buffer (Molecular Devices, Inc.) containing 2.5 mM probenecid at 37° C. for 2 h, followed by test compounds (dose-range 0.1 nM-10 μM) for another 30 min. The plates were then placed into a FLIPR (Molecular Devices, Inc.) to monitor fluorescence (λ excitation 488 nm, λ emission 540 nm) before and after the addition of EC90 of [OX].
Write the number in nM without appending the unit.

C[C@@H]1CC(F)(F)CN(C(=O)c2nn(C)cc2-c2ccccc2)[C@@H]1COc1ccc(C(F)(F)F)cn1    8
C[C@@H]1CC(F)(F)CN(C(=O)c2nn(C)cc2-c2ncc(F)cn2)[C@@H]1COc1ncc(C(F)(F)F)cc1F    1000

Let's switch to this compound now.
Req: Enter reported IC50 observed with Orexin/Hypocretin receptor type 1 (Homo sapiens, UniProt O43613) for C[C@@H]1CC(F)(F)CN(C(=O)c2nn(C)cc2-c2ncc(F)cn2)[C@@H]1COc1cnc(C(F)(F)F)cn1
Resp: 1000

Taken from ChEMBL document CHEMBL5728229.
